Numbers sourced from patent US20230398218A1.

Overview of recorded Stability (half-life (hr.)) for various molecules
# SYSTEM: HLA A02.01 (Homo sapiens, UniProt P04439, D140Y/D185E/D98H/E176V/E277Q/G131W/G231S/I119V/I121R/I166T/I218V/L300P/L318F/N151K/N90K/P208A/P217A/Q86G/Q94H/R138H/R169H/T345S)
# METHOD DESCRIPTION: MHC-I peptide binding stability assay (pMHC-I dissociation half-life)
# ASSAY SETUP: Table 11, EGFR T790M peptides; HLA allele A02.01
RESULT TYPE: Stability (half-life (hr.)) (min)

MOL: CC[C@H](C)[C@H](N)C(=O)N[C@@H](CCSC)C(=O)N[C@@H](CCC(N)=O)C(=O)N[C@@H](CC(C)C)C(=O)N[C@@H](CCSC)C(=O)N1CCC[C@H]1C(=O)N[C@@H](Cc1ccccc1)C(=O)NCC(=O)N[C@@H](CS)C(=O)N[C@@H](CC(C)C)C(=O)O
OBSERVED: 30.94

MOL: CC[C@H](C)[C@H](NC(=O)[C@H](CC(C)C)NC(=O)[C@@H](N)CCC(N)=O)C(=O)N[C@@H](CCSC)C(=O)N[C@@H](CCC(N)=O)C(=O)N[C@@H](CC(C)C)C(=O)N[C@@H](CCSC)C(=O)N1CCC[C@H]1C(=O)N[C@@H](Cc1ccccc1)C(=O)O
OBSERVED: 20.44

MOL: CSCC[C@H](NC(=O)[C@H](CC(C)C)NC(=O)[C@H](CCC(N)=O)NC(=O)[C@@H](N)CCSC)C(=O)N1CCC[C@H]1C(=O)N[C@@H](Cc1ccccc1)C(=O)NCC(=O)N[C@@H](CS)C(=O)N[C@@H](CC(C)C)C(=O)N[C@@H](CC(C)C)C(=O)O
OBSERVED: 22.87

MOL: CSCC[C@H](NC(=O)[C@H](CC(C)C)NC(=O)[C@H](CCC(N)=O)NC(=O)[C@@H](N)CCSC)C(=O)N1CCC[C@H]1C(=O)N[C@@H](Cc1ccccc1)C(=O)NCC(=O)N[C@@H](CS)C(=O)N[C@@H](CC(C)C)C(=O)O
OBSERVED: 22.1

MOL: CC[C@H](C)[C@H](NC(=O)[C@@H](N)CC(C)C)C(=O)N[C@@H](CCSC)C(=O)N[C@@H](CCC(N)=O)C(=O)N[C@@H](CC(C)C)C(=O)N[C@@H](CCSC)C(=O)N1CCC[C@H]1C(=O)N[C@@H](Cc1ccccc1)C(=O)NCC(=O)N[C@@H](CS)C(=O)O
OBSERVED: 22.88

* * *

# SYSTEM: HLA A02.01 (Homo sapiens, UniProt P04439, D140Y/D185E/D98H/E176V/E277Q/G131W/G231S/I119V/I121R/I166T/I218V/L300P/L318F/N151K/N90K/P208A/P217A/Q86G/Q94H/R138H/R169H/T345S)
# METHOD DESCRIPTION: MHC-I peptide binding affinity assay (displacement of radiolabeled reference peptide)
# ASSAY SETUP: Table 11, EGFR T790M peptides; HLA allele A02.01; read-out: Affinity
pIC50: −log10 of the molar value.
Is pIC50 at least 7? Then Fulfilled. If not, Not fulfilled.

MOL: CC[C@H](C)[C@H](N)C(=O)N[C@@H](CCSC)C(=O)N[C@@H](CCC(N)=O)C(=O)N[C@@H](CC(C)C)C(=O)N[C@@H](CCSC)C(=O)N1CCC[C@H]1C(=O)N[C@@H](Cc1ccccc1)C(=O)NCC(=O)N[C@@H](CS)C(=O)N[C@@H](CC(C)C)C(=O)O
ASSIGNED CATEGORY: Not fulfilled
--
MOL: CSCC[C@H](NC(=O)[C@H](CC(C)C)NC(=O)[C@H](CCC(N)=O)NC(=O)[C@@H](N)CCSC)C(=O)N1CCC[C@H]1C(=O)N[C@@H](Cc1ccccc1)C(=O)NCC(=O)N[C@@H](CS)C(=O)N[C@@H](CC(C)C)C(=O)N[C@@H](CC(C)C)C(=O)O
ASSIGNED CATEGORY: Fulfilled
--
MOL: CC[C@H](C)[C@H](NC(=O)[C@H](CC(C)C)NC(=O)[C@H](CCC(N)=O)NC(=O)[C@@H](N)C(C)C)C(=O)N[C@@H](CCSC)C(=O)N[C@@H](CCC(N)=O)C(=O)N[C@@H](CC(C)C)C(=O)N[C@@H](CCSC)C(=O)N1CCC[C@H]1C(=O)N[C@@H](Cc1ccccc1)C(=O)O
ASSIGNED CATEGORY: Not fulfilled
--
MOL: CC[C@H](C)[C@H](NC(=O)[C@H](CC(C)C)NC(=O)[C@@H](N)CCC(N)=O)C(=O)N[C@@H](CCSC)C(=O)N[C@@H](CCC(N)=O)C(=O)N[C@@H](CC(C)C)C(=O)N[C@@H](CCSC)C(=O)N1CCC[C@H]1C(=O)N[C@@H](Cc1ccccc1)C(=O)O
ASSIGNED CATEGORY: Not fulfilled
